Entry source: patent US20080221134A1

# TARGET ENTITY: Adenosine A2A (Homo sapiens, UniProt P29274)
# Sequence (P29274 whole entry): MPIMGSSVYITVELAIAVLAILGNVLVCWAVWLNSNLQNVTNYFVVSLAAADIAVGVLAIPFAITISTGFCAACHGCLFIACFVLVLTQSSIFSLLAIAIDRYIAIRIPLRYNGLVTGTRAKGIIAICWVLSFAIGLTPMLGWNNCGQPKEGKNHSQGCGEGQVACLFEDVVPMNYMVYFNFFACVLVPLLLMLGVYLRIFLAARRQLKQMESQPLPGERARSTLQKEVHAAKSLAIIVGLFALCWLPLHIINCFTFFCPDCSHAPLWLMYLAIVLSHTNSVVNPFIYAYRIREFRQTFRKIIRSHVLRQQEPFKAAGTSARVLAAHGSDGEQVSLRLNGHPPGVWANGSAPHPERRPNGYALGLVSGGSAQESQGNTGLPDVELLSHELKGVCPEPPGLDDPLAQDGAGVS
# ASSAY REMARKS: Radioligand binding assay 2, Adenosine A2A
# Design: expressed in transfected cells; host or cells: HEK-293 cells
# COND: at 1 μmol/l; human recombinant HEK-293 cells, [3H]CGS 21680; read-out: A2A AR % inhibition of agonist binding
METRIC: inhibition at 1 µM

MOLECULE: C#CCn1c(=O)c2c(nc(C#Cc3cccc(OC)c3)n2C)n(C)c1=O [drawing 607]
OBSERVED: 81%

MOLECULE: C#CCn1c(=O)c2c(nc(C#Cc3cccc(OC)c3)n2CC#C)n(C)c1=O [drawing 610]
OBSERVED: 86%

MOLECULE: C#CCn1c(=O)c2c(nc(C#Cc3ccc(OC)c(OC)c3)n2C)n(C)c1=O [drawing 609]
OBSERVED: 85%

MOLECULE: C#CCn1c(=O)c2c(nc(C#Cc3cccc(OC)c3)n2C)n(CCCO)c1=O [drawing 611]
OBSERVED: 93%

Using the record for C#CCn1c(=O)c2c(nc(C#Cc3ccc(OC)c(OC)c3)n2C)n(CC)c1=O [drawing 608] , report its inhibition at 1 µM.
95%

Using the record for C#CCn1c(=O)c2c(nc(C#Cc3ccc(OC)c(OC)c3)n2C)n(CCCO)c1=O [drawing 612] , report its inhibition at 1 µM.
97%

Using the record for C#CCn1c(=O)c2c(nc(C#Cc3cccc(C)c3)n2C)n(CCCO)c1=O [drawing 613] , report its inhibition at 1 µM.
92%

----------
Parameter: Ki. Scope: all listed entries.
# TARGET ENTITY: Adenosine A2A (Homo sapiens, UniProt P29274)
# ASSAY REMARKS: Functional assay (luciferase reporter), inhibition of A2A adenosine receptor
# COND: Ki=IC50/(1+agonist concentration/EC50); read-out: A2A AR Ki
Please state the number and follow it with the unit.

Field: example entries. Status: answers known.
COMPOUND: C#CCn1c(=O)c2c(nc(C#Cc3cccc(OC)c3)n2C)n(C)c1=O [drawing 617]
Ki: 178 nM
//
COMPOUND: C#CCn1c(=O)c2c(nc(C#Cc3ccc(OC)c(OC)c3)n2C)n(CC)c1=O [drawing 618]
Ki: 23 nM
//
COMPOUND: C#CCn1c(=O)c2c(nc(C#Cc3cccc(C)c3)n2C)n(CCCO)c1=O [drawing 623]
Ki: 40 nM
//
COMPOUND: C#CCn1c(=O)c2c(nc(C#Cc3cccc(OC)c3)n2C)n(CCCO)c1=O [drawing 620]
Ki: 82 nM

Using the record for C#CCn1c(=O)c2c(nc(C#Cc3ccc(OC)c(OC)c3)n2C)n(C)c1=O [drawing 619] , report its Ki.
58 nM

Using the record for C#CCn1c(=O)c2c(nc(C#Cc3ccc(OC)c(OC)c3)n2C)n(CCCO)c1=O [drawing 622] , report its Ki.
26 nM

Using the record for C#CCn1c(=O)c2c(nc(C#Cc3cccc(OC)c3)n2CC#C)n(C)c1=O [drawing 621] , report its Ki.
47 nM

----------
Parameter: inhibition at 1 µM. Scope: all listed entries.
# TARGET ENTITY: Adenosine A1 (Homo sapiens)
# ASSAY REMARKS: Radioligand binding assay 2, Adenosine A1
# Parameters: expressed in transfected cells; host or cells: CHO cells
# COND: at 1 μmol/l; human recombinant CHO cells, [3H]CCPA; read-out: A1 AR % inhibition of agonist binding
Express it in %; write the number only.

Field: example entries. Status: answers known.
COMPOUND: C#CCn1c(=O)c2c(nc(C#Cc3ccc(OC)c(OC)c3)n2C)n(CCCO)c1=O [drawing 612]
UNIT LABEL: %
inhibition at 1 µM: 34

COMPOUND: C#CCn1c(=O)c2c(nc(C#Cc3cccc(OC)c3)n2C)n(C)c1=O [drawing 607]
UNIT LABEL: %
inhibition at 1 µM: 5

Shift focus to the following entry.
Using the record for C#CCn1c(=O)c2c(nc(C#Cc3cccc(OC)c3)n2CC#C)n(C)c1=O [drawing 610] , report its inhibition at 1 µM.
24

----------
# TARGET ENTITY: human A2A receptor (Homo sapiens)
METRIC: IC50

Using the record for C#CCn1c(=O)c2c(nc(C#Cc3ccccc3)n2C)n(C)c1=O , report its IC50.
> 300 nM

----------
Measurement record for Rat A1 AR (Rattus norvegicus); quantity recorded: pKi.
pKi: −log10 of the molar value.

Field: example entries. Status: answers known.
COMPOUND: C#CCn1c(=O)c2c(nc(C#Cc3ccc(OC)c(OC)c3)n2C)n(CCF)c1=O [drawing 518]
METRIC: pKi
OBSERVED: ≤ 6.00

COMPOUND: C#CCn1c(=O)c2c(nc(C#Cc3ccc(OC)c(OC)c3)n2C)n(CCCO)c1=O [drawing 533]
METRIC: pKi
OBSERVED: 6.47

COMPOUND: C#CCn1c(=O)c2c(nc(C#Cc3ccc(OC)c(OC)c3)n2C)n(CC#N)c1=O [drawing 500]
METRIC: pKi
OBSERVED: < 6.00

COMPOUND: C#CCn1c(=O)c2c(nc(C#Cc3cccc(OCCCN(C)C)c3)n2C)n(C)c1=O [drawing 470]
METRIC: pKi
OBSERVED: 6.73

COMPOUND: C#CCn1c(=O)c2c(nc(C#Cc3cc(OC)cc(OC)c3)n2C)n(C)c1=O
METRIC: pKi
OBSERVED: < 5.00

COMPOUND: C#CCn1c(=O)c2c(nc(C#Cc3cccc(OC)c3)n2C)n(CCCO)c1=O [drawing 484]
METRIC: pKi
OBSERVED: 6.85

Using the record for C#CCn1c(=O)c2c(nc(C#Cc3ccc(Cl)c(Cl)c3)n2C)n(CC)c1=O [drawing 550] , report its pKi.
< 6.00

Using the record for C#CCn1c(=O)[nH]c2nc(C#Cc3ccc(OC)c(OC)c3)n(C)c2c1=O [drawing 483] , report its pKi.
≤ 5.00

Using the record for C#CCn1c(=O)c2c(nc(C#Cc3cccc(OC)c3)n2C)n(CC)c1=O [drawing 485] , report its pKi.
< 5.00

Using the record for C#CCn1c(=O)c2c(nc(C#Cc3ccc(OC)c(OC)c3)n2C)n(CCC2CO2)c1=O (centres unmarked) [drawing 505] , report its pKi.
7.19

Using the record for C#CCn1c(=O)c2c(nc(C#Cc3cccc(OCCN(C)C)c3)n2C)n(C)c1=O [drawing 473] , report its pKi.
6.71

Using the record for C#CCn1c(=O)c2c(nc(C#Cc3ccc(OC)cc3)n2C)n(CC)c1=O , report its pKi.
< 6.00

----------
# TARGET ENTITY: Rat A2A AR (Rattus norvegicus)
# Sequence (P30543 whole entry): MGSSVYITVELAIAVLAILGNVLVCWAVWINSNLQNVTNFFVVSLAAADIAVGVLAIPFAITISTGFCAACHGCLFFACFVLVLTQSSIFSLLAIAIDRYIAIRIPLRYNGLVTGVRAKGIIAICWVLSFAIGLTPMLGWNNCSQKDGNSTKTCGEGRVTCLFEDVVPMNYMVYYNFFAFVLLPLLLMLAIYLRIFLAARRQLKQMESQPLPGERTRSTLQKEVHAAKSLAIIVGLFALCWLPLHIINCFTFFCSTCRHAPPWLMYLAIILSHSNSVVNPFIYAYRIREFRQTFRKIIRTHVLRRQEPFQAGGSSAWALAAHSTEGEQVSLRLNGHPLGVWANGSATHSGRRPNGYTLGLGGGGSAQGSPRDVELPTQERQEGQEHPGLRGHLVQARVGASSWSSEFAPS
METRIC: pKi
Conceptually, pKi converts a concentration in mol/L into minus its log10.

COMPOUND: C#CCn1c(=O)c2c(nc(C#Cc3cc(C)c(C)cc3C)n2C)n(C)c1=O
TARGET ENTITY: Rat A2A AR (Rattus norvegicus)
METRIC: pKi
OBSERVED: 5.36

Report pKi for C#CCn1c(=O)c2c(nc(C#Cc3cccc(OCC=C)c3)n2C)n(C)c1=O tested on Rat A2A AR (Rattus norvegicus).
6.82

Report pKi for C#CCn1c(=O)c2c(nc(C#Cc3ccc(OC)c(OC)c3)n2C)n(CCCO)c1=O [drawing 533] tested on Rat A2A AR (Rattus norvegicus).
7.52

Report pKi for C#CCn1c(=O)c2c(nc(C#Cc3cccc(F)c3)n2C)n(C)c1=O tested on Rat A2A AR (Rattus norvegicus).
6.33

Report pKi for C#CCn1c(=O)c2c(nc(C#Cc3ccc(OC)c(OC)c3)n2C)n(Cc2cnc[nH]2)c1=O [drawing 527] tested on Rat A2A AR (Rattus norvegicus).
7.54

----------
# TARGET ENTITY: A1-adenosine receptor human recombinant (Homo sapiens)
# Sequence (P30542 1-326): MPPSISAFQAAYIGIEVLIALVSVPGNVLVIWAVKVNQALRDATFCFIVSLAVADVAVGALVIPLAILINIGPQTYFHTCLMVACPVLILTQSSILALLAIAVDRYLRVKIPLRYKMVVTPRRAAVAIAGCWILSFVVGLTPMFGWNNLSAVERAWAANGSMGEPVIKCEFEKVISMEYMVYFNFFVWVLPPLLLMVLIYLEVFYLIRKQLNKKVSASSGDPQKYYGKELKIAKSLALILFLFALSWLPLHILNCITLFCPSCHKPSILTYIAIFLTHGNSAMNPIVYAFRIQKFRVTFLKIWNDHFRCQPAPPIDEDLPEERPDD
# ASSAY REMARKS: Radioligand binding assay 1, human recombinant A1 adenosine receptor
# COND: [3H]CCPA
Parameter: Ki. Scope: all listed entries.

Field: example entries. Status: answers known.
COMPOUND: C#CCn1c(=O)c2c(nc(C#Cc3cccc(OCc4ccoc4)c3)n2C)n(C)c1=O [drawing 562]
Ki: > 1 µM
--
COMPOUND: C#CCn1c(=O)c2c(nc(C#Cc3ccc(F)c(OC)c3)n2C)n(CC)c1=O [drawing 588]
Ki: > 1 µM
--
COMPOUND: C#CCn1c(=O)c2c(nc(C#Cc3ccc(OC)c(OC)c3)n2C)n(C)c1=O [drawing 554]
Ki: > 3 µM
--
COMPOUND: C#CCn1c(=O)c2c(nc(C#Cc3cccc(OCCOC)c3)n2C)n(C)c1=O [drawing 559]
Ki: > 1 µM
--
COMPOUND: C#CCn1c(=O)c2c(nc(C#Cc3ccc(OC)c(OC)c3)n2C)n(CC(O)CO)c1=O (centres unmarked) [drawing 595]
Ki: > 1 µM
--
COMPOUND: C#CCn1c(=O)c2c(nc(C#Cc3ccc(OC)c(OC)c3)n2C)n(CCC#N)c1=O [drawing 577]
Ki: > 1 µM
--
COMPOUND: C#CCn1c(=O)c2c(nc(C#Cc3ccc(OCC)c(OCC)c3)n2C)n(CC)c1=O [drawing 573]
Ki: > 1 µM
--
COMPOUND: C#CCn1c(=O)c2c(nc(C#Cc3ccc(OC)c(OC)c3)n2C)n(CC#N)c1=O [drawing 576]
Ki: > 1 µM
--
COMPOUND: C#CCn1c(=O)c2c(nc(C#Cc3cccc(Cl)c3)n2C)n(C)c1=O [drawing 556]
Ki: > 10 µM
--
COMPOUND: C#CCn1c(=O)c2c(nc(C#Cc3ccc(OC)c(OC)c3)n2C)n(CC(=O)OC)c1=O [drawing 598]
Ki: > 1 µM

Using the record for C#CCn1c(=O)c2c(nc(C#Cc3ccc(OC)c(OC)c3)n2C)n(Cc2cnc[nH]2)c1=O [drawing 593] , report its Ki.
> 1 µM

Using the record for C#CCn1c(=O)c2c(nc(C#Cc3ccc(OC)c(OC)c3)n2C)n(CCO)c1=O [drawing 575] , report its Ki.
> 1 µM

Using the record for C#CCn1c(=O)c2c(nc(C#Cc3cccc(C)c3)n2C)n(C)c1=O [drawing 555] , report its Ki.
> 10 µM

Using the record for C#CCn1c(=O)c2c(nc(C#Cc3ccc(OC)c(OC)c3)n2C)n(C(C)C)c1=O [drawing 586] , report its Ki.
> 1 µM

Using the record for C#CCn1c(=O)c2c(nc(C#Cc3ccc(OC)c(OC)c3)n2C)n(Cc2ccoc2)c1=O [drawing 583] , report its Ki.
> 1 µM

Using the record for C#CCn1c(=O)[nH]c2nc(C#Cc3ccc(OC)c(OC)c3)n(C)c2c1=O [drawing 563] , report its Ki.
> 1 µM

Using the record for C#CCn1c(=O)c2c(nc(C#Cc3cccc(OC)c3)n2C)n(CC)c1=O [drawing 565] , report its Ki.
> 3 µM
